Catalogue of Emax readings, one per entry.
# target_or_system: human muscarinic M4 receptor (Homo sapiens, UniProt P08173)
# Construct: expressed in transfected cells
# protocol_summary: Alphascreen Surefire phospho-ERK1/2 functional assay, M4
# Assay type: cell-based
# measurement_setup: CHO, read-out: % Emax cf. ACh, M4, CHO cells stably expressing human M4; relative to ACh

Before answering, review these 2 worked examples.
| compound | readout_label | observed_value |
| --- | --- | --- |
| CCn1nccc1C1CCN(C2CC3(CCN(C(=O)OC)C3)C2)CC1 (single isomer, unassigned) [1-46 Isomer 2] | Emax | 63% |
| CCOC(=O)N1CCC2(CC(N3CCC(c4cc(C)c[nH]c4=O)CC3)C2)C1 (single isomer, unassigned) [3-15 Isomer 2] | Emax | 36% |

Now for a further compound.
Look up Emax of CCOC(=O)N1CCC2(CC(N3CCC([C@@H]4CCCN4C(=O)NC4CC4)CC3)C2)C1 (single isomer, unassigned) [2-29 Isomer 2] and report it.
110%

###

# target_or_system: human muscarinic M4 receptor (Homo sapiens)
# Construct: expressed in transfected cells
# protocol_summary: Alphascreen Surefire phospho-ERK1/2 functional assay, M4
# Assay type: cell-based
# measurement_setup: CHO cells stably expressing human M4; phospho-ERK1/2; * = variable results; read-out: pEC50 M4 (converted)
readout_label: EC50 (µM)
Give just the numeric value; µM need not be written.

| compound | target_or_system | unit_of_measurement | observed_value |
| --- | --- | --- | --- |
| CCOC(=O)N1CCC2(CC(N3CCC([C@@H]4CCCN4C(=O)C4CC4)CC3)C2)C1 (single isomer, unassigned) [2-8 Isomer 2] | human muscarinic M4 receptor (Homo sapiens) | µM | 0.0158 |

Hello, please tell me recorded EC50 for this one: CCOC(=O)N1CCC2(CC(N3CCC(c4nccn4CC(=O)NC)CC3)C2)C1 (single isomer, unassigned) [1-54 Isomer 2]
0.794

###

# target_or_system: human muscarinic M4 receptor (Homo sapiens)
# Construct: expressed in transfected cells
# Sequence (P08173 1-479): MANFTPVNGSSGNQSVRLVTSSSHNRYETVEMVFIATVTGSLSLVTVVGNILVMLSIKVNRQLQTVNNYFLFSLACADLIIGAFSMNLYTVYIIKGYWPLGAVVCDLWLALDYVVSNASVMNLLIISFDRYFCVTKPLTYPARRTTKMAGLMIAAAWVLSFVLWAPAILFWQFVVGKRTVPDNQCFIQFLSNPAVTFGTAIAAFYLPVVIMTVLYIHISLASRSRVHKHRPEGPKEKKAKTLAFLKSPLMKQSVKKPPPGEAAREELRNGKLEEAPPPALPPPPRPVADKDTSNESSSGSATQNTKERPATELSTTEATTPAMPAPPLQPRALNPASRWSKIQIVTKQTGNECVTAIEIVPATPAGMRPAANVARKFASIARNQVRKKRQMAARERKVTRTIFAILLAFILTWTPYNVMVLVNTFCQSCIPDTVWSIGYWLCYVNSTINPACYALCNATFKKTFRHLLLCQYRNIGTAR
# protocol_summary: Alphascreen Surefire phospho-ERK1/2 functional assay, M4
# Type: cell-based
# measurement_setup: CHO cells stably expressing human M4; phospho-ERK1/2; * = variable results; read-out: pEC50 M4 (converted)
readout_label: EC50

Known results for compounds:
| compound | EC50 |
| --- | --- |
| CCOC(=O)N1CCC2(CC(N3CCC([C@H]4CCCN4C(=O)OC)CC3)C2)C1 (single isomer, unassigned) [2-13 Isomer 2] | 158 nM |
| CCOC(=O)N1CCC2(CC(N3CCC(c4c(C)cc[nH]c4=O)CC3)C2)C1 (single isomer, unassigned) [3-14 Isomer 2] | 251 nM |
| CCOC(=O)N1CCC2(CC(N3CCC(N4CCC[C@@H]4CF)CC3)C2)C1 (single isomer, unassigned) [2-102 Isomer 2] | 316 nM |
| COC(=O)N1CCC2(CC(N3CCC(c4nccn4C)CC3)C2)C1 (single isomer, unassigned) [1-6 Isomer 2] | 63.1 nM |
| CCOC(=O)N1CCC2(CC(N3CCC(N4CCC[C@@H]4C(=O)OC)CC3)C2)C1 (single isomer, unassigned) [2-84 Isomer 2] | 20 nM |

Recall the reported EC50 of CCOC(=O)N1CCC2(CC(N3CCC(N4CCCC(F)(F)C4)CC3)C2)C1 (single isomer, unassigned) [4-13 Isomer 2] on human muscarinic M4 receptor (Homo sapiens) and write it down.
100 nM

For human muscarinic M4 receptor (Homo sapiens), give the measured EC50 of the entry CCOC(=O)N1CCC2(CC(N3CCC(c4ccn[nH]4)CC3)C2)C1 (single isomer, unassigned) [1-18 Isomer 2]
50.1 nM

###

# target_or_system: human muscarinic M4 receptor (Homo sapiens)
# Construct: expressed in transfected cells
# Sequence (P08173 1-479): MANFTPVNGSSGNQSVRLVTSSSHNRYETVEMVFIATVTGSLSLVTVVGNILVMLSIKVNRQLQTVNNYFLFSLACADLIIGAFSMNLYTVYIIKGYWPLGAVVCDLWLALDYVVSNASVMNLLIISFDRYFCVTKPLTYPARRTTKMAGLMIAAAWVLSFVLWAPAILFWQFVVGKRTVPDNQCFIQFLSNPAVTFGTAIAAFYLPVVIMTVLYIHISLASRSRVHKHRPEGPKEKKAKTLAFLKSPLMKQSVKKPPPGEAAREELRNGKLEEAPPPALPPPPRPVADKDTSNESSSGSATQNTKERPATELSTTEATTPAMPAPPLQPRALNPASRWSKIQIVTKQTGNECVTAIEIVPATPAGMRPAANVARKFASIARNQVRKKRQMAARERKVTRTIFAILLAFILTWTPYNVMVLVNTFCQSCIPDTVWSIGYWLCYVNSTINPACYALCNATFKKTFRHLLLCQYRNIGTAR
# protocol_summary: Alphascreen Surefire phospho-ERK1/2 functional assay, M4
# Assay type: cell-based
# measurement_setup: CHO cells stably expressing human M4; phospho-ERK1/2; * = variable results; read-out: pEC50 M4 (converted)
readout_label: log10 of EC50 (log10 of the value in nM)
Short version: log10 scale, EC50, nM.

Solved cases (3 shown):
| molecule | readout_label | observed_value |
| --- | --- | --- |
| CCOC(=O)N1CCC2(CC(N3CCC(N4CC(F)(F)C[C@@H]4C(C)O)CC3)C2)C1 (single isomer, unassigned) [2-109 Isomer 2] | log10 of EC50 | 1.20 |
| CCOC(=O)N1CCC2(CC(N3CCC([C@@H]4CCCN4C(=S)CC)CC3)C2)C1 (single isomer, unassigned) [2-58 Isomer 2] | log10 of EC50 | 1.50 |
| CCOC(=O)N1CCC2(CC(N3CCC(c4ncc(Cl)n4C)CC3)C2)C1 (single isomer, unassigned) [1-14 Isomer 2] | log10 of EC50 | 1.70 |

We next turn to a different molecule, shown below.
Given the molecule CCOC(=O)N1CCC2(CC(N3CCC(N4CCCC4=O)CC3)C2)C1 (single isomer, unassigned) [2-111 Isomer 2] , write its reported log10 of EC50.
1.50

###

# target_or_system: human muscarinic M4 receptor (Homo sapiens)
# Construct: expressed in transfected cells
# protocol_summary: Alphascreen Surefire phospho-ERK1/2 functional assay, M4
# Assay type: cell-based
# measurement_setup: CHO, read-out: % Emax cf. ACh, M4, CHO cells stably expressing human M4; relative to ACh
Below: a set of entries, each annotated with reported Emax.
Form entry: enter the amount, then its unit.

// fetch Emax; item: CCOC(=O)N1CCC2(CC(N3CCC([C@@H]4CCCN4C(=O)OCCN(C)C)CC3)C2)C1 (single isomer, unassigned) [2-51 Isomer 2] ; system: human muscarinic M4 receptor (Homo sapiens)
53%

System human muscarinic M4 receptor (Homo sapiens). Read-out Emax. Item [2H]C([2H])([2H])C([2H])([2H])OC(=O)N1CCC2(CC(N3CCC(n4cccn4)CC3)C2)C1 (single isomer, unassigned) [1-70 Isomer 2] . Report value.
101%

Report Emax under test system human muscarinic M4 receptor (Homo sapiens) for CCOC(=O)N1CCC2(CC(N3CCC(c4nccn4C)CC3)C2)C1 (single isomer, unassigned) [1-7 Isomer 2] .
97%

###

Attribute: EC50
# target_or_system: human muscarinic M1 receptor (Homo sapiens)
# Sequence (P11229 whole entry): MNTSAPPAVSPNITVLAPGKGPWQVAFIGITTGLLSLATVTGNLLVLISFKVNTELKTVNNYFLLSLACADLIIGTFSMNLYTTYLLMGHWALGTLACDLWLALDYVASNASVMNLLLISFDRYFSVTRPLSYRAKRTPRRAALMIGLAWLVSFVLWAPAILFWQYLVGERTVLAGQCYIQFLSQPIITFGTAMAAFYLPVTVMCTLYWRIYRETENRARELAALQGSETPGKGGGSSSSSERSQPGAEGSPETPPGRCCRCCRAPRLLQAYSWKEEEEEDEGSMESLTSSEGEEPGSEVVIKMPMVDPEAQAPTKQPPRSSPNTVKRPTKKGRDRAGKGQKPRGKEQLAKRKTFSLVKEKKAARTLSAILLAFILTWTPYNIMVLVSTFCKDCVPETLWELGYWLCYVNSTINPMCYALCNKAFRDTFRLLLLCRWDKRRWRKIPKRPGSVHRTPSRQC
# protocol_summary: Alphascreen Surefire phospho-ERK1/2 functional assay, M1
# Type: cell-based
# measurement_setup: CHO cells stably expressing human M1; phospho-ERK1/2; * = variable results; read-out: pEC50 M1 (converted)
Quick reminder: number only, in nM, skip the unit.

| molecule | EC50, nM |
| --- | --- |
| CCOC(=O)N1CCC2(CC(N3CCC(n4cccn4)CC3)C2)C1 (single isomer, unassigned) [1-33 Isomer 2] | 25.1 |
| CCOC(=O)N1CCC2(CC(N3CCC(c4ncc(Cl)n4C)CC3)C2)C1 (single isomer, unassigned) [1-14 Isomer 2] | 631 |
| CCOC(=O)N1CCC2(CC(N3CCC([C@@H]4CCCN4C(=O)N4Cc5cccnc5C4)CC3)C2)C1 (single isomer, unassigned) [2-133 Isomer 2] | 79.4 |

Identify measured EC50 associated with CCOC(=O)N1CCC2(CC(N3CCC(C4CCCN4C(C)=O)CC3)C2)C1 (single isomer, unassigned) [2-3 Isomer 2]
10000

Give me measured EC50, please, for this molecule: CCOC(=O)N1CCC2(CC(N3CCC(C4C(=O)NCCC4C)CC3)C2)C1 (single isomer, unassigned) [4-3 Isomer 2]
158

Tell us which EC50 value is on record for CCOC(=O)N1CCC2(CC(N3CCC(c4nccn4CCOC)CC3)C2)C1 (single isomer, unassigned) [1-51 Isomer 2]
1260
